Attribution: ChEMBL document CHEMBL3988442

- TARGET OR SYSTEM: Coenzyme A biosynthesis bifunctional protein CoaBC (Mycobacterium tuberculosis (strain ATCC 25618 / H37Rv)) (UniProt P9WNZ1)
- Sequence (P9WNZ1 whole entry): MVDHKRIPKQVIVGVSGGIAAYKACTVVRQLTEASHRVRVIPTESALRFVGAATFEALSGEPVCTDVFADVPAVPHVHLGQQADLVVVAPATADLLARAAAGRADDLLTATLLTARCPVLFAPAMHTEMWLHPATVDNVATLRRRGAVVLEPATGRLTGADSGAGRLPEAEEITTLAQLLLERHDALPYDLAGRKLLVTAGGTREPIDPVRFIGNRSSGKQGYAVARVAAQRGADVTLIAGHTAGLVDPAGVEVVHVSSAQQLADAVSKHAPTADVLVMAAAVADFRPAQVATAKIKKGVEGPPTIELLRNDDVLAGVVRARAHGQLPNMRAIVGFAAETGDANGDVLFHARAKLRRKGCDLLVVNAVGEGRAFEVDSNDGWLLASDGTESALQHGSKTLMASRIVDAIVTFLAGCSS
- ASSAY DETAILS: Biomol Green assay for MtCoaBC inhibitor, OD650 read
- Format: functional
- Set-up: scale not given: in the data most compounds retested in dose-response had high values
- CONDITIONS USED: 30 µM
Screen size: about 67,000 compounds; about 40 (0.06%) showed an effect of 50% or more. This is one part of a sample in which strong results are shown more often than they occur.
Parameter Percent Effect: see the listing below.
VALUE KIND: Percent Effect (%)

COc1ccc(CN2CCCC2)cc1Oc1ccc2c(c1)CC(CN)O2 (stereo not drawn)	4.1
CN(C)C(=O)CN1C[C@@H]2CC[C@H](C1)N(C/C=C/c1ccc(F)cc1)C2	-5.7
CCOC(=O)[C@]12CCCN(Cc3ccco3)C[C@H]1CN(CCN(C)C)C2	3.17
CC(C)(C)N1CCCN(C(=O)c2csc(S(N)(=O)=O)c2)CC1	-6.17
CC(=O)N1C[C@H]2CNC[C@@]2(C(=O)NCCCOc2cccnc2)C1	3.58
Cc1cc(C(=O)NC2CCN(c3ncccc3C#N)CC2)no1	-0.609
CN(Cc1nnc2n1CCC2)S(=O)(=O)c1ccc(Br)cc1Cl	-1.49
O=C(NCC1CC1)[C@@H]1C[C@@H]2OCCN[C@@H]2C1	-1.96
CC(C)CC(=O)N1CC[C@@H]2CN(CC(=O)N(C)C)S(=O)(=O)[C@@H]2CC1	2.32
Cc1noc(C)c1CN1C[C@@H]2COC[C@H](C(=O)N3CCCCO3)[C@@H]2C1	0.259
COCCNC(=O)[C@H]1CN(Cc2sccc2C)C[C@H]2OCC[C@@H]12	2.59
CNC(=O)[C@H]1C[C@@H]2CN(S(=O)(=O)c3ccc(C)cc3)C[C@@H]2N1C	1.63
CNC(=O)[C@H]1C[C@@H]2CN(Cc3cccnc3OC)C[C@@H]2N1C(C)C	1.06
CS(=O)(=O)N1CC[C@H]2[C@H](C[C@@H](Cn3cncn3)N2CC2CC2)C1	5
CN1CCN(C[C@H]2OC[C@@H]3CCN(Cc4ccsc4)C[C@@H]32)CC1	-5.68
Cc1ncsc1CN1C[C@@H]2COC[C@]2(COc2ccc(C#N)cn2)C1	2.8
c1ccc(CN2C[C@@H]3COC[C@]3(COCC3CCOCC3)C2)nc1	9.51
O=C(CC1CC1)N1CC[C@H]2[C@@H]1CCC(=O)N2c1cccnc1	5.4
COCCN1CC[C@@H]2CN(Cc3cccnc3OC)C[C@@H]2C1	-0.364
CC1CCN(C(=O)[C@@H]2CC[C@@H]3[C@@H](CCN3c3ncc(F)cn3)O2)CC1	-4.84
CN(C)c1ncc(C(=O)N2C[C@H]3C[C@H](Oc4ccccc4)C[C@H]3C2)cn1	12.4
Cc1noc([C@H]2C[C@@H]3CCN(CC4CCOCC4)C[C@H]3O2)n1	14.2
Cn1cccc1C(=O)N1CC[C@H]2C[C@@H](c3ccncn3)O[C@@H]2C1	1.03
CC(C)NC(=O)[C@@]12CCO[C@@H]1CCN(Cc1ccc3c(c1)OCO3)C2	-0.976
c1cnc(N2CCO[C@H]3[C@H](OCC4CCOCC4)CC[C@@H]32)nc1	1.73
CCO[C@H]1CN(C(=O)c2ccnnc2)[C@@H]2COC[C@H]12	-7.56
O=C1N[C@@H]2CCN(C(=O)C3CCC3)[C@@H]2C(=O)N1c1ccc(F)cc1	0.226
Cc1cc(CN2CCCC2)cc(Oc2ccc3c(c2)CC(CN)O3)c1 (stereo not drawn)	3.85
CN(Cc1nnc2n1CCC2)S(=O)(=O)c1cc(Br)ccc1Br	3.23
CN(Cc1ccccn1)C(=O)[C@H]1CO[C@H]2CCN(CC3CC3)C[C@H]2C1	1.98
COc1ccc(C2CC(=O)c3c(O)cc(O)cc3O2)cc1O (stereo not drawn)	17.8
COCC(=O)NC(CC(C)C)c1nc2cccnc2n1C (stereo not drawn)	-0.123
Cc1cccc(CN2C[C@H]3CCC[C@@]3(COCc3csc(C)n3)C2)n1	3.06
CC(C)N(Cc1ccc(Cl)c(Cl)c1)C(=O)Cn1cncn1	5.66
Cc1ccc(S(=O)(=O)NCCNC(=O)c2cncnc2C)cc1	5.91
Nc1cc(O)nc(CCNC(=O)CC[C@@H]2CCCN3CCCC[C@H]23)n1	-3.91
O=C(O)c1cc(-n2cc3c(n2)CCC3)cc(S(=O)(=O)N2CCOCC2)c1	-5.92
O=C1CC[C@H]2CN(c3ncc(F)cn3)CC[C@H]2N1CCc1c[nH]cn1	-3.02
Cc1cccc(C(=O)N2CCCC(c3noc(C)n3)C2)n1 (stereo not drawn)	-20.7
Cc1csc(CN2CC[C@H]3C[C@H](c4nc(C)no4)O[C@@H]3C2)n1	-2.84
CC(C)N(Cc1ccc(Cl)c(Cl)c1)C(=O)CCn1cncn1	5.9
CCc1cnc(N2C[C@H]3CN(Cc4ccc(OC)cc4)C(=O)[C@H]3C2)nc1	-3.75
COc1cc(C2CC(=O)c3c(O)cc(O)cc3O2)ccc1O (stereo not drawn)	7
